Test system: female mouse (Jcl: ICR lineage)
Test: Repellent test (Experimental Example 1, two-section feed choice apparatus)
Assay type: in vivo
Conditions: drug amount 0.5 g on one sheet of filter paper, number of observation days 1
measure: repellent rate (%)
Give a bare numeral; the unit % is implied.

[ask] Reported repellent rate (%) for CC(C)Cc1nc2ccccc2s1 : what is it?
[reply] 94

[ask] Reported repellent rate (%) for CC1(C)Nc2ccccc2S1 : what is it?
[reply] 100

[ask] Reported repellent rate (%) for Cc1nc2c(C)cccc2s1 : what is it?
[reply] 100

[ask] Reported repellent rate (%) for FC(F)(F)c1nc2ccccc2s1 : what is it?
[reply] 100

[ask] Reported repellent rate (%) for c1ccc2scnc2c1 [Comparison compound C, reference compound] : what is it?
[reply] 4

[ask] Reported repellent rate (%) for c1ccc(-c2nc3ccccc3s2)cc1 [comparison compound B, reference compound] : what is it?
[reply] 0

[ask] Reported repellent rate (%) for Sc1nc2ccccc2s1 [comparison compound A, reference compound] : what is it?
[reply] 0
